Molecular target: DYRK1A (Homo sapiens)
pKd: −log10 of the molar value.
Each record here notes measured pKd.

Observe how each entry below is paired with its result.
[
  {
    "Compound": "c1cc(-c2ccc3ncc(-c4ccc(N5CCCCC5)nc4)n3n2)ccn1 [Compound 74]",
    "pKd": "6.30 to 7.00"
  },
  {
    "Compound": "Cc1c2cc(-n3c(C)nc4ccc(-c5ccncc5)nc43)ccc2nn1C [Compound 139]",
    "pKd": "7.00 to 9.30"
  },
  {
    "Compound": "Cc1cc(-c2ccc3nc(C)n(-c4ccc5[nH]cnc5c4)c3n2)ccn1 [Compound 50]",
    "pKd": "7.00 to 9.30"
  },
  {
    "Compound": "Cc1nc2ccc(-c3ccnc(N)c3)nc2n1-c1ccc(CN2CCOCC2)nc1 [Compound 149]",
    "pKd": "5.00 to 6.30"
  }
]

// fetch pKd given entry Cc1nc2ccc(-c3ccncc3)nc2n1-c1ccc(Cl)cn1 [Compound 141]
7.00 to 9.30

Give pKd for Cc1nc2ccc(-c3cnn(C)c3)nc2n1-c1ccc(N2CCOCC2)c(F)c1 [Compound 146]
7.00 to 9.30

State its pKd: Nc1cc(-c2ccc3ncc(-c4ccc(CN5CCCCC5)cc4)n3n2)ccn1 [Compound 110]
7.00 to 9.30

For the compound Cc1nc2ccc(-c3ccnc(N)c3)nc2n1-c1ccc(N2CCS(=O)(=O)CC2)c(F)c1 [Compound 182] , give its measured pKd value.
7.00 to 9.30

Return the recorded pKd value; entry: Cc1nc2ccc(-c3ccnc(N)c3)nc2n1-c1ccc(N2CCOCC2)cc1 [Compound 148]
7.00 to 9.30

---

Molecular target: DYRK1A (Homo sapiens, UniProt Q13627)
Consider the following compounds and their measured Kd readings.

Example cases with answers are listed next.
[
  {
    "Test smiles": "Cc1nc2ccc(-c3ccnc(N)c3)nc2n1-c1ccc(N2CCOCC2)c(Cl)c1",
    "Kd": "0.5 to 100 nM"
  },
  {
    "Test smiles": "Fc1cc(-c2cnc3ccc(-c4ccncc4)nn23)ccc1CN1CCCCC1",
    "Kd": "101 to 500 nM"
  }
]

Under DYRK1A (Homo sapiens, UniProt Q13627): report Kd of "COc1cnc(-c2ccncc2)nc1" .
501 to 10000 nM

// output Kd; input "Cc1nc2ccc(-c3ccncc3)nc2n1-c1ccc(CN2C[C@@H]3C[C@@H]2CO3)cc1" ; system DYRK1A (Homo sapiens, UniProt Q13627)
0.5 to 100 nM

---

Target or system DYRK1A (Homo sapiens, UniProt Q13627); recorded quantity Kd.

Consider the worked cases shown below.
[
  {
    "Compound": "Cc1nc2ccc(-c3ccncc3)nc2n1-c1cnc2[nH]ccc2c1 [Compound 137]",
    "Kd": "0.5 to 100 nM"
  },
  {
    "Compound": "Cc1nc2ncc(-c3ccnc(N)c3)nc2n1-c1ccc(N2CCOCC2)cc1 [Compound 128]",
    "Kd": "501 to 10000 nM"
  }
]

Answer with the recorded Kd of Cc1nc2ccc(-c3ccncc3)nc2n1-c1ccc(CN2C[C@H](C)O[C@@H](C)C2)cc1 [Compound 118] only.
0.5 to 100 nM

Assign Kd to the following record: Cc1cc(-c2ccc3ncc(N4CCN(C5COC5)CC4)n3n2)ccn1 [Compound 84]
501 to 10000 nM

Could you please provide reported Kd for Cc1nc2cc(-n3c(C)nc4ccc(-c5ccncc5)nc43)ccc2[nH]1 [Compound 138] ? Thanks!
0.5 to 100 nM

Consider the compound COC(=O)c1ccc(-c2cnc3ccc(-c4ccncc4)nn23)cc1 [Compound 72] . State its measured Kd.
0.5 to 100 nM

---

Molecular target: DYRK1A (Homo sapiens, UniProt Q13627)
Assay: Affinity testing of compounds with DYRK1A (KD)
Type: binding
Conditions: DYRK1A affinity key classes
Here, each record is paired with measured Kd data.

In one line, give reported Kd of the entry "O=c1cc(-c2ccn3ncc(-c4ccc(CN5CCOCC5)cc4)c3n2)cc[nH]1" .
501 to 10000 nM

Give me measured Kd, please, for this molecule: "Cc1cc(-c2ccc3ncc(-c4ccc(CN5CCN[C@H](C)C5)cc4)n3n2)ccn1"
0.5 to 100 nM

Determine from records and report Kd for "Nc1cc(-c2ccn3ncc(-c4ccc(CN5CCOCC5)cc4)c3n2)ccn1"
501 to 10000 nM

Consider the molecule "Cc1nc2ccc(-c3ccncc3)nc2n1-c1cccc(CN2CCOCC2)c1" and give its recorded Kd.
0.5 to 100 nM

Fill in reported Kd for this entry: "Cc1nc2ccc(-c3ccnc(N)c3)nc2n1-c1ccc2c(c1)OCC(=O)N2"
0.5 to 100 nM

# return recorded Kd for entry "Cc1nc2ccc(-c3ccnc(N)c3)nc2n1-c1ccc(F)c(N2CCOCC2)c1"
0.5 to 100 nM

---

pKd: −log10 of the molar value.
For reference, pKd measured on DYRK1A (Homo sapiens, UniProt Q13627):

Before answering, review these 3 worked examples.
[
  {
    "Test smiles": "Cc1nc2ccc(-c3ccnc4[nH]ccc34)nc2n1-c1ccc(N2CCOCC2)c(F)c1",
    "pKd": "7.00 to 9.30"
  },
  {
    "Test smiles": "Cc1nc2ccc(-c3ccncc3)nc2n1-c1ccc(CO)cc1",
    "pKd": "7.00 to 9.30"
  },
  {
    "Test smiles": "CC(=O)N1CCN(c2ccc(-n3c(C)nc4ccc(-c5ccnc(N)c5)nc43)cc2F)CC1",
    "pKd": "7.00 to 9.30"
  }
]

Continue with the next compound.
Quote DYRK1A (Homo sapiens, UniProt Q13627) pKd for entry "Cc1nc2ccc(-c3cc[nH]c(=O)c3)nc2n1-c1ccc(N2CCOCC2)cc1" .
5.00 to 6.30

---

pKd: −log10 of the molar value.
Quick note: these are pKd numbers for system: DYRK1A (Homo sapiens)

Known pKd results, listed for orientation:
[
  {
    "Compound": "Cc1nc2ccc(-c3ccncc3)nc2n1-c1ccc(C(=O)NC2CC(F)(F)C2)cc1 [Compound 58]",
    "pKd": "6.30 to 7.00"
  },
  {
    "Compound": "CC(=O)N1CCc2cc(-n3c(C)nc4ccc(-c5ccnc(N)c5)nc43)ccc21 [Compound 154]",
    "pKd": "7.00 to 9.30"
  },
  {
    "Compound": "Cc1nc2ccc(-c3ccnc(N)c3)nc2n1-c1ccc2c(c1)CCN2C1CCOCC1 [Compound 174]",
    "pKd": "7.00 to 9.30"
  },
  {
    "Compound": "Cc1nc2ccc(-c3ccnc(N)c3)nc2n1-c1ccc(N2CCOC[C@H]2C)c(F)c1 [Compound 170]",
    "pKd": "7.00 to 9.30"
  },
  {
    "Compound": "Cc1nc2ccc(-c3ccnc(N)c3)nc2n1-c1ccc(N2CCC3(COC3)C2)c(F)c1 [Compound 169]",
    "pKd": "7.00 to 9.30"
  }
]

Check DYRK1A (Homo sapiens) data and give pKd for Cc1nc2ccc(-c3ccnc(N)c3)nc2n1-c1ccc(N2C[C@H]3C[C@H]2CO3)nc1 [Compound 160] .
7.00 to 9.30

State recorded pKd with DYRK1A (Homo sapiens), entry Cc1nc2ccc(-c3ccncc3)nc2n1-c1ccc(CN2CCOCC2)cn1 [Compound 64] , no comment.
5.00 to 6.30

Specify the recorded pKd for CN1CCN(Cc2ccc(-c3cnc4ccc(-c5ccncc5)nn34)cc2)CC1 [Compound 100] , system: DYRK1A (Homo sapiens).
6.30 to 7.00

Report pKd under test system DYRK1A (Homo sapiens) for Cc1nc2cnc(-c3ccnc(N)c3)cc2n1-c1cccc(CN2CCOCC2)c1 [Compound 180] .
6.30 to 7.00

Under DYRK1A (Homo sapiens), report pKd for c1cc(-c2ccc3ncc(-c4ccc(CN5CCCCC5)cc4)n3n2)ccn1 [Compound 97]
7.00 to 9.30

Please report pKd with DYRK1A (Homo sapiens) for item Cc1nc2ccc(-c3ccnc(N)c3)nc2n1-c1cc(F)c(N2CCOCC2)c(F)c1 [Compound 172] .
7.00 to 9.30

---

Reported pKd by item:
Target: DYRK1A (Homo sapiens)
Assay: Affinity testing of compounds with DYRK1A (KD)
Format: binding
Settings: DYRK1A affinity key classes
pKd: −log10 of the molar value.

Previously resolved entries follow.
[
  {
    "Compound": "Cc1cc(-c2ccc3nc(C)n(-c4ccc5[nH]cnc5c4)c3n2)cc(C)n1 [Compound 51]",
    "System name": "DYRK1A (Homo sapiens)",
    "pKd": "6.30 to 7.00"
  },
  {
    "Compound": "COc1cccc(-c2cnc3ccc(-c4ccncc4)nn23)c1 [Compound 75]",
    "System name": "DYRK1A (Homo sapiens)",
    "pKd": "5.00 to 6.30"
  }
]

Attention now shifts to the item below.
Look up pKd of Cc1cc(-c2ccc3ncc(-c4ccc(CN5CCOCC5)cc4)n3n2)ccn1 [Compound 90] and report it.
6.30 to 7.00

Origin of values: patent US12054483B2
